Tested on: Musca domestica
Test: Insecticidal activity against Musca domestica (housefly) assessed as paralysis at 28 degC measured after 24 hr at 10 ug topically
Assay type: functional, organism-based
Activity calls are given as the source filed them. The rule behind the calls is not given here.
Select the matching outcome among T (active), F (inactive)

Solved cases below.
molecule	target_or_system	label
COCCOc1ccc(OC)c([C@H]2OC[C@]3(O)[C@@H](Oc4c(OC)cccc4OC)OC[C@H]23)c1 (racemic)	Musca domestica	T
COCCOCCOc1ccc(OC)c([C@H]2OC[C@]3(O)[C@@H](Oc4c(OC)cccc4OC)OC[C@H]23)c1 (racemic)	Musca domestica	T
COc1ccc(OCc2ccc3c(c2)OCO3)cc1[C@H]1OC[C@]2(O)[C@@H](Oc3c(OC)cccc3OC)OC[C@H]12 (racemic)	Musca domestica	F

Switching to the query record.
## Input Please state the recorded outcome for this molecule: COCCOc1ccc(OC)c([C@H]2OC[C@]3(O)[C@H](Oc4c(OC)cccc4OC)OC[C@H]23)c1 (racemic)
## Output F

----------
System: Musca domestica
Test: Insecticidal activity against Musca domestica (housefly) assessed as paralysis at 28 degC measured after 24 hr at 10 ug topically
Assay type: functional, organism-based
Activity calls are given as the source filed them. No cut-off for these calls is given here.
quantity: Activity

compound	quantity	observed_measurement
COc1ccc(O)cc1[C@H]1OC[C@]2(O)[C@H](Oc3c(OC)cccc3OC)OC[C@H]12 (racemic)	Activity	inactive
COc1ccc(O)cc1[C@H]1OC[C@]2(O[Si](C)(C)C(C)(C)C)[C@@H](Oc3c(OC)cccc3OC)OC[C@H]12 (racemic)	Activity	inactive
COc1ccc(O[Si](C)(C)C(C)(C)C)cc1[C@H]1OC[C@]2(O[Si](C)(C)C(C)(C)C)C(Oc3c(OC)cccc3OC)OC[C@H]12 (mixture of isomers)	Activity	inactive

Value source: ChEMBL document CHEMBL3044759
